measured.target: Cytochrome P450 2D6 (Homo sapiens) (UniProt P10635)
Sequence (P10635 whole entry, looked up): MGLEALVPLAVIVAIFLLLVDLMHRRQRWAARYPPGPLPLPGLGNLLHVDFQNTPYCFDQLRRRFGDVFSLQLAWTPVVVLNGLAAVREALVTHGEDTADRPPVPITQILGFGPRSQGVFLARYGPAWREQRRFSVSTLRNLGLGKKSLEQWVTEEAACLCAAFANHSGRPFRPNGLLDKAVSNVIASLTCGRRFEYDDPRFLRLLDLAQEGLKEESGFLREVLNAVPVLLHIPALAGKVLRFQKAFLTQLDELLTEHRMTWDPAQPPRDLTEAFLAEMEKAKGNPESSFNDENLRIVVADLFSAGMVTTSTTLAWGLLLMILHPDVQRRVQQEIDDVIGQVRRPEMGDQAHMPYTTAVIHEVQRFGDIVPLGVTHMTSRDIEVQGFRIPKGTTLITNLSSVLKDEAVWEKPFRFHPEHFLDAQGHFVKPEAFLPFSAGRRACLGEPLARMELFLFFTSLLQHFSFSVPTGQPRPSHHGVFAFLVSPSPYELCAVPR
assay.notes: Cytochrome P450 Family 2 Subfamily D Member 6 (CYP2D6) small molecule antagonists: luciferase reporter qHTS assay (AID 1671196); further: nearly all actives have a fitted effect of over 50% in size
experimental.conditions: P450-Glo CYP2D6 enzyme assay, luciferin luminescence, 1 h; series mostly up to 115 µM
Text: U.S. Tox21 Program National Center for Advancing Translational Sciences [NCATS] U.S. Environmental Protection Agency [EPA] National Institutes of Environmental Health Sciences [NIEHS] National Toxicology Program [NTP] U.S. Food and Drug Administration [FDA] […] The luciferin products formed are detected with a luciferin detection reagent, and the amount of light produced is proportional to CYP activity. […]
Results filed as inconclusive are left out. The source made the active and inactive calls. The call rests on the fitted dose curve; in most records, active means well fitted inhibition curve with a large enough effect in the repeat runs; inconclusive means weak or mixed curves; inactive means no such curve, though single readings can be large or run the other way.
Select the matching outcome among label 1 (active), label 0 (inactive)

INSERT INTO results (molecule, category) VALUES
  ('c1ccc(-c2nn[nH]n2)cc1', 'label 0'),
  ('CN(C)C(C)(C)CO', 'label 0'),
  ('CC(=O)c1cc(C)oc1C', 'label 0'),
  ('CCCCOCC(C)O (stereo not given)', 'label 0');

Write down the call the test reported for this molecule. Item: N#Cc1cscn1 label 0

Write down the call the test reported for this molecule. Item: CCO label 0

Write down the call the test reported for this molecule. Item: Cc1ccc(C(C)NC(=O)[C@@H](NC(=O)OC(C)C)C(C)C)cc1 (stereo not given in full) label 1

Write down the call the test reported for this molecule. Item: C=CC(=O)OCC1CCCO1 (stereo not given) label 0

Write down the call the test reported for this molecule. Item: CC(CO)(CO)CO label 1

Write down the call the test reported for this molecule. Item: Cn1c(=O)c2[nH]c(Br)nc2n(C)c1=O label 0

Write down the call the test reported for this molecule. Item: CCC(=O)Oc1ccc2c(c1)CC[C@@H]1[C@@H]2CC[C@@]2(C)[C@H]1C[C@@H](OC(=O)CC)[C@@H]2OC(=O)CC label 0

###

assay.notes: qHTS assay to identify small molecule antagonists of the sonic hedgehog signaling (Shh) pathway - cell viability counter screen (AID 1259367); further: on the % scale 0 is the no-effect control and ±100 the full control effect; nearly all actives have a fitted effect of over 55% in size
experimental.conditions: NIH/3T3 Gli1-Luc viability, CellTiter-Fluor, 24 h; series mostly up to 92.4 µM
From the text: National Center for Advancing Translational Sciences [NCATS] NIH Chemical Genomics Center [NCGC] U.S. Environmental Protection Agency [EPA] National Institutes of Environmental Health Sciences [NIEHS] National Toxicology Program [NTP] U.S. Food and Drug Administration [FDA] The sonic hedgehog (Shh) pathway is essential for normal embryonic development. Dysregulation of the Shh pathway can cause severe developmental defects in organs. […]
Results filed as inconclusive are left out. The source made the active and inactive calls. Calls come from the whole dose curve; as a rule, active = well fitted cell-killing curve with a large enough effect in the repeat runs; inconclusive = weak or mixed curves, or effect the other way; inactive = no such curve, though single readings can be large or run the other way.
measured.property: viability change, negative = cytotoxic

INSERT INTO results (compound, measured_value) VALUES
  ('CC1=C(O)C(=O)C(C)O1 (configuration not stated)', 'inactive'),
  ('CCCCCC(C)O (configuration not stated)', 'inactive'),
  ('C=Cc1ccc(C(C)(C)C)cc1', 'inactive'),
  ('CN1C[C@@H]2C[C@H]1CN2c1cc2c(cc1F)c(=O)c(C(=O)O)cn2C1CC1', '0.743% [at 19 µM] (inactive)'),
  ('C=C(C)c1cccc(C(C)(C)N=C=O)c1', 'inactive');

In plain terms, C/C(=C1\CCOC(=O)S1)N(C=O)Cc1cnc(C)nc1N has a documented viability change, negative = cytotoxic of inactive

In plain terms, CCCC(=O)Nc1ccc(OCC(O)CNC(C)C)c(C(C)=O)c1 (configuration not stated) has a documented viability change, negative = cytotoxic of inactive

In plain terms, CCCCOC(=O)[C@H](C)O has a documented viability change, negative = cytotoxic of inactive

In plain terms, CCC(C)OC(C)CC (configuration not stated) has a documented viability change, negative = cytotoxic of inactive

In plain terms, O=S(=O)(O)c1ccc2c(N=Nc3ccc(S(=O)(=O)O)c4ccccc34)c(O)c(S(=O)(=O)O)cc2c1 has a documented viability change, negative = cytotoxic of -12.4% [at 8.39 µM] (inactive)

In plain terms, CC(C)C[C@@H]1[C@H](c2ccccc2)OC(=O)N1CCCN1CCCCCC1 has a documented viability change, negative = cytotoxic of inactive

In plain terms, CC1(C)Oc2ccc(C#N)cc2[C@@H](N2CCCC2=O)[C@@H]1O has a documented viability change, negative = cytotoxic of inactive

###

measured.target: Peroxisome proliferator-activated receptor gamma (Homo sapiens) (UniProt P37231)
Sequence (P37231 whole entry, looked up): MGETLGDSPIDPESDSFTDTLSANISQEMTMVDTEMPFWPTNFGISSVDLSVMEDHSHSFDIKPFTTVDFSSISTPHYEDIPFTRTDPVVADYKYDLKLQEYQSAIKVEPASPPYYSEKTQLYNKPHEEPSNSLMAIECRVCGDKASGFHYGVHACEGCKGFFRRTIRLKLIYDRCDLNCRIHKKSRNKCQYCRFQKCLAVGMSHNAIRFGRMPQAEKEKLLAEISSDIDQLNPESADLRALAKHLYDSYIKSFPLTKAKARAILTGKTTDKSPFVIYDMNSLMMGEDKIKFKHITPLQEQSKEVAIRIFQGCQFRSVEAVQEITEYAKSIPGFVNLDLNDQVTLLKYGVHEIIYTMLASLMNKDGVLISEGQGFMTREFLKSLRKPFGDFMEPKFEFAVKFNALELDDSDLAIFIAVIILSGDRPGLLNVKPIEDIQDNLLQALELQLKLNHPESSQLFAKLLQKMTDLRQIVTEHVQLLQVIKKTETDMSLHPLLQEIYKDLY
assay.notes: qHTS assay to identify small molecule agonists of the peroxisome proliferator-activated receptor gamma (PPARg) signaling pathway (AID 743094); further: on the % scale 0 is the no-effect control and ±100 the full control effect
experimental.conditions: HEK293H PPARg-UAS-bla, beta-lactamase FRET ratio, 17 h; series mostly up to 57 µM
Results filed as inconclusive are left out. Active and inactive are the calls of the source. Calls come from the whole dose curve; as a rule, active = well fitted activation curve with a large enough effect in the signal ratio in the repeat runs (not every such curve was filed as active); inconclusive = weak or mixed curves, or effect the other way; inactive = no such curve, though single readings can be large or run the other way; the % refers to the signal ratio.
Select the matching outcome among active, inactive

These solved cases illustrate the format of a correct answer.
INSERT INTO assay_data (compound, measured_target, category) VALUES
  ('C=CCSSCCC', 'Peroxisome proliferator-activated receptor gamma (Homo sapiens) (UniProt P37231)', 'inactive'),
  ('CC(O)COC(C)(C)C (stereo unspecified)', 'Peroxisome proliferator-activated receptor gamma (Homo sapiens) (UniProt P37231)', 'inactive'),
  ('Cn1c(=O)c2[nH]c(Br)nc2n(C)c1=O', 'Peroxisome proliferator-activated receptor gamma (Homo sapiens) (UniProt P37231)', 'inactive'),
  ('Cc1c(C(=O)c2c[nH]n(C)c2=O)ccc(S(C)(=O)=O)c1C1=NOCC1', 'Peroxisome proliferator-activated receptor gamma (Homo sapiens) (UniProt P37231)', 'inactive'),
  ('CCCCCCCCCOC(=O)c1ccccc1C(=O)OCCCCCCCCC', 'Peroxisome proliferator-activated receptor gamma (Homo sapiens) (UniProt P37231)', 'inactive');

Write down the call the test reported for this compound. Item: O=C(Cl)c1ccccc1[N+](=O)[O-] inactive

Write down the call the test reported for this compound. Item: CCC(=O)c1c(O)cc(O)cc1O inactive

Write down the call the test reported for this compound. Item: CCCCCc1cccc(=O)o1 inactive

###

assay.notes: qHTS assay for small molecule agonists of the antioxidant response element (ARE) signaling pathway - cell viability counter screen (AID 743203); further: on the % scale 0 is the no-effect control and ±100 the full control effect; nearly all actives have a fitted effect of over 55% in size
experimental.conditions: ARE-bla HepG2 viability, CellTiter-Glo luminescence, 16 h; series mostly up to 73.3 µM
Results filed as inconclusive are left out. Activity calls are given as the source filed them. Calls follow the shape of the full dose curve.
measured.property: viability change, negative = cytotoxic

Use these answered entries as a reference point.
INSERT INTO assay_data (compound, measured_value) VALUES
  ('CC(=O)CC(=O)Nc1ccc(C)cc1C', 'inactive'),
  ('C=CCCCCCCCC', 'inactive'),
  ('COC(=O)c1cccc(Cl)c1', 'inactive'),
  ('Cc1ccc(C(C)NC(=O)[C@@H](NC(=O)OC(C)C)C(C)C)cc1 (stereo partly specified)', 'inactive'),
  ('CCC(C)OC(C)CC (stereo unspecified)', 'inactive'),
  ('Nc1nnnn1-c1ccccc1', 'inactive');

In plain terms, C=C(C)[C@@H]1CC=C(C)CC1 has a documented viability change, negative = cytotoxic of inactive

In plain terms, CC(C)Cn1cnc2c1c(=O)n(C)c(=O)n2C has a documented viability change, negative = cytotoxic of inactive

In plain terms, Cc1ncc([N+](=O)[O-])n1CC(C)O (stereo unspecified) has a documented viability change, negative = cytotoxic of inactive

In plain terms, CC(C)NCC(O)c1ccc2ccccc2c1 (stereo unspecified) has a documented viability change, negative = cytotoxic of inactive

In plain terms, CN(C)CCCCl has a documented viability change, negative = cytotoxic of inactive

###

measured.target: Estrogen receptor (Homo sapiens)
assay.notes: qHTS assay to identify small molecule agonists of the estrogen receptor alpha (ER-alpha) signaling pathway using the BG1 cell line (AID 743079); further: on the % scale 0 is the no-effect control and ±100 the full control effect; nearly all actives have a fitted effect of over 20% in size
experimental.conditions: BG1Luc4E2 cells, ERE-luciferase agonist, 22 h; series mostly up to 70.3 µM
Records with an inconclusive call do not appear. The source made the active and inactive calls. The call rests on the fitted dose curve; in most records, active means well fitted activation curve with a large enough effect in the repeat runs; inconclusive means weak or mixed curves, or effect the other way; inactive means no such curve, though single readings can be large or run the other way.
Select the matching outcome among true (1) (active), false (0) (inactive)

INSERT INTO results (molecule, measured_target, category) VALUES
  ('CC1=C(C(=O)O)N2C(=O)[C@@H](NC(=O)[C@H](N)c3ccccc3)[C@H]2SC1', 'Estrogen receptor (Homo sapiens)', 'false (0)'),
  ('Cn1nnc2c(C(N)=O)ncn2c1=O', 'Estrogen receptor (Homo sapiens)', 'false (0)'),
  ('CC(C)(CO)C(O)C(=O)NCCCO (stereo not drawn)', 'Estrogen receptor (Homo sapiens)', 'false (0)'),
  ('CN(C)CCCO[C@@H]1[C@H]2OC(C)(C)O[C@H]2O[C@@H]1C(O)CO (stereo partly drawn)', 'Estrogen receptor (Homo sapiens)', 'false (0)'),
  ('CC(C)(C)NC[C@H](O)COc1cccc2c1CCCC2=O', 'Estrogen receptor (Homo sapiens)', 'false (0)'),
  ('CC1OCCC1=O (stereo not drawn)', 'Estrogen receptor (Homo sapiens)', 'false (0)'),
  ('CCCSSCCC', 'Estrogen receptor (Homo sapiens)', 'false (0)'),
  ('C=CCSSCCC', 'Estrogen receptor (Homo sapiens)', 'false (0)');

Write down the call the test reported for this molecule. Item: N#CCC(=O)NN false (0)

Write down the call the test reported for this molecule. Item: O=C(CCCCC(=O)Nc1c(I)cc(I)c(C(=O)O)c1I)Nc1c(I)cc(I)c(C(=O)O)c1I false (0)

Write down the call the test reported for this molecule. Item: Cc1ccccc1C(N)=O false (0)

Write down the call the test reported for this molecule. Item: CCO false (0)

Write down the call the test reported for this molecule. Item: CC(C)C1OCCN1CCOC(=O)NCCCCCCNC(=O)OCCN1CCOC1C(C)C (stereo not drawn) false (0)
